# target: Human plasma kallikrein (Homo sapiens (Human), UniProt P03952)
# Sequence (P03952 391-638): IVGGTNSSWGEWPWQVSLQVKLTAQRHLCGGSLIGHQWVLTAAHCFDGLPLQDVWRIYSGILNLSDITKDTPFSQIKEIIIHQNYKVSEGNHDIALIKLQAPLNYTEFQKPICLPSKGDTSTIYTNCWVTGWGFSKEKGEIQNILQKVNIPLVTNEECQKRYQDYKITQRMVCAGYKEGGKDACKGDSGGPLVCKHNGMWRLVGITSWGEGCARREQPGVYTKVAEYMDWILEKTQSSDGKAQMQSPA
# Sequence (P03952 20-390 partner): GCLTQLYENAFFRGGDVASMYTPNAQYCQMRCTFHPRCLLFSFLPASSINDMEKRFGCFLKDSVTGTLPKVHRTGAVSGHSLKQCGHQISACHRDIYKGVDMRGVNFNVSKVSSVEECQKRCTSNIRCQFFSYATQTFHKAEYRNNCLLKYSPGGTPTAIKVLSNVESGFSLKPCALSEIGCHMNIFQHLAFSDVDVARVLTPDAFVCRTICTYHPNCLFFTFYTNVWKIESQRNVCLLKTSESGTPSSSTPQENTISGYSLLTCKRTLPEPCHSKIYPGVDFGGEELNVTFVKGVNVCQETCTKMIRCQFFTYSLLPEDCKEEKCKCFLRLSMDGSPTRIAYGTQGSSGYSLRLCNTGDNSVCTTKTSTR
# method: Kallikrein Assay (fluorogenic substrate Acetyl-K-P-R-AFC)
# setupConditions: Plasma Kallikrein (PKal)
pIC50: −log10 of the molar value.
Please mark Condition met if the recorded pIC50 is equal to or greater than 9, and Condition not met if it falls below.

Use the examples below as a reference point.
Cc1ncc(-c2c(C#N)ccc(Cl)c2F)nc1C(=O)Nc1cnn(C(C)c2cnc(N3C[C@H]4C[C@H]4C3=O)c(C)n2)c1 (single isomer, unassigned) [Example 235] ... Condition met
CC(c1ccc(N2CC3CC3C2=O)nc1)n1cc(NC(=O)c2cncc(-c3c(C(F)F)ccc(Cl)c3F)n2)cn1 (single isomer, unassigned) [Example 11] ... Condition not met
Cc1cc(N2C[C@H]3C[C@H]3C2=O)ncc1Cn1cc(NC(=O)c2cncc(-c3c(C(F)F)ccc(Cl)c3F)n2)cn1 ... Condition not met
CC(c1cnc(N2Cc3ncccc3C2=O)nc1)n1cc(NC(=O)c2cncc(-c3c(C(F)F)ccc(Cl)c3F)n2)cn1 (racemic) ... Condition not met
Cc1nc(N2C[C@H]3C[C@H]3C2=O)c(F)cc1C(C)n1cc(NC(=O)c2cncc(-c3c(C(F)F)ccc(Cl)c3F)n2)cn1 (stereo partly drawn) [Example 150] ... Condition not met

Task: Is it the case that "C=Cc1ncc(-c2c(C(F)F)ccc(Cl)c2F)nc1C(=O)Nc1cnn(Cc2cnc(N3C[C@H]4C[C@H]4C3=O)nc2C)c1" has pIC50 reaching or exceeding 9?
Result: Condition not met

Task: Next molecule up: "Cc1cc(Cn2cc(NC(=O)c3nc(-c4c(OC(F)F)ccc(Cl)c4F)cnc3C)cn2)nnc1N1C[C@H]2C[C@H]2C1=O"
Result: Condition not met

Task: Next molecule up: Cc1ccc(Cl)c(F)c1-c1cncc(C(=O)Nc2cnn(C(C)c3cnc(N4C[C@H]5C[C@H]5C4=O)nc3C)c2)n1 (single isomer, unassigned) [Example 109]
Result: Condition not met
